Reference for the values: patent US6436905B1

experiment: Pulsating bubble surfactometry: minimum surface tension and time to reach it; assay type: physicochemical; settings: DPPC sonicated 0.5; pH 7.3; 37.5 °C; pulse rate 30/min
VALUE_KIND: Time to Develop (min)
Express the result in min but write the number alone.

Specify Time to Develop for `CCCCCCCCCCCCCCCC(=O)OC[C@H](COP(=O)([O-])OCC[N+](C)(C)C)OC(=O)CCCCCCCCCCCCCCC` and stop.
2

====

assay: Pulsating bubble surfactometry: minimum surface tension and time to reach it; assay type: physicochemical; settings: DPPC (fresh) 0.5; pH 6.3; 24.9 °C; pulse rate 30/min
VALUE_KIND: Time to Develop (min)
Your answer is read as min, so omit the unit and give the number.

Return value of Time to Develop for input `CCCCCCCCCCCCCCCC(=O)OC[C@H](COP(=O)([O-])OCC[N+](C)(C)C)OC(=O)CCCCCCCCCCCCCCC` , no commentary.
30

====

Assay: Pulsating bubble surfactometry: minimum surface tension and time to reach it
Format: physicochemical
Conditions: DLPC (fresh) 0.5; pH 5.47; 24.0 °C; pulse rate 30/min; second line
Source text: One of the most important properties of the polymer/phospholipid complexes in accordance with the invention, especially for use as artificial lung surfactants, is the manner in which the surface tension varies with repetitive changes in surface area, and one test method that has been used is a pulsating bubble technique using a pulsating bubble surfactometer which consists of a sample chamber, pulsator unit and pressure-recording device. […]
VALUE_KIND: Time to Develop (min)
The response must be a number in min with no trailing unit.

Give the reported value of Time to Develop for this record: `CCCCCCCCCCCC(=O)OC[C@H](COP(=O)([O-])OCC[N+](C)(C)C)OC(=O)CCCCCCCCCCC`
40

====

experiment: Pulsating bubble surfactometry: minimum surface tension and time to reach it; type: physicochemical; details: DPPC sonicated 0.5; pH 7.3; 37.5 °C; after 40 mins at room temp; pulse rate 30/min
VALUE_KIND: Time to Develop (min)
// note: answer is a bare numeric in min

Report measured Time to Develop; entry is `CCCCCCCCCCCCCCCC(=O)OC[C@H](COP(=O)([O-])OCC[N+](C)(C)C)OC(=O)CCCCCCCCCCCCCCC`
40

====

test: Pulsating bubble surfactometry: minimum surface tension and time to reach it; format: physicochemical; details: DLPC (fresh) 0.5; pH 5.47; 24.0 °C; pulse rate 30/min; first line
VALUE_KIND: Time to Develop (min)
Report only the number, with the unit min understood.

Please supply the value of reported Time to Develop for the item CCCCCCCCCCCC(=O)OC[C@H](COP(=O)([O-])OCC[N+](C)(C)C)OC(=O)CCCCCCCCCCC [dlf5]
20

====

experiment: Pulsating bubble surfactometry: minimum surface tension and time to reach it; type: physicochemical; settings: DPPC sonicated 0.5; pH 7.3; 24.0 °C; pulse rate 30/min
VALUE_KIND: Time to Develop (min)
Write the value in min as a bare number.

Return reported Time to Develop. Input compound: CCCCCCCCCCCCCCCC(=O)OC[C@H](COP(=O)([O-])OCC[N+](C)(C)C)OC(=O)CCCCCCCCCCCCCCC [dpf7s]
20

====

experiment: Pulsating bubble surfactometry: minimum surface tension and time to reach it; type: physicochemical; conditions: DLPC (fresh) sonicated 0.5; pH 3.92; 24.0 °C; pulse rate 30/min
VALUE_KIND: Time to Develop
Report the figure along with its unit, number first.

Please give measured Time to Develop of the following entry: `CCCCCCCCCCCC(=O)OC[C@H](COP(=O)([O-])OCC[N+](C)(C)C)OC(=O)CCCCCCCCCCC`
10 min
